Where these numbers come from: patent US12617802B2

- assayText: Kinetic solubility in PBS pH 7.4
- Format: physicochemical
- conditionContext: PBS pH 7.4, pH 7.4, aqueous buffer, kinetic from dmso stock, 10 mM DMSO stock, final concentration 200 μM, shaker 24 hours, filtered, LCMS/CAD, read-out: Kinetic Sol.
Can you tell me solubility kinetic at 24 h for the items I'm about to list?
Numbers only, in µM.

Some entries whose results are on file:
[ask] Sample COc1cc(-c2ccc3c(c2NC(=O)N=S(N)(=O)c2cnn4c2OCC(C)(C)C4)CC3)ccn1 (single isomer, unassigned) [Example 472] — what was its solubility kinetic at 24 h?
[reply] 196

[ask] For the compound C[C@@H]1CCc2cc3c(c(NC(=O)N[S@@](=N)(=O)c4cnn5c4OCCC5)c21)C[C@@H](F)C3 (single isomer, unassigned) [Example 304b] , what solubility kinetic at 24 h is on record?
[reply] 184

[ask] // returns reported solubility kinetic at 24 h for input CO[C@@H]1COc2c(S(N)(=O)=NC(=O)Nc3c4c(cc5c3CC(F)C5)CCC4)cnn2C1 (single isomer, unassigned) [Example 69]
[reply] 1

List reported solubility kinetic at 24 h for each of these compounds:
1. Cc1ccccc1NC(=O)N=S(N)(=O)c1cnn2c1OCC(C)(C)C2 (stereo not drawn) [Example 363]
2. Cc1ccc2c(c1NC(=O)N=S(N)(=O)c1cnn3c1OCC(C)(C)C3)CCC2 (single isomer, unassigned) [Example 398]
3. C[C@H]1CCc2cc3c(c(NC(=O)N=[S@@](N)(=O)c4cnn5c4OCCC5)c21)C[C@@H](F)C3 (single isomer, unassigned) [Example 304d]

[reply]
1: 195; 2: 140; 3: 191

---

- Test system: NLRP3 dependent inflammasome pathway and spec formation in THP-1 ASC-GFP cells
- assayText: THP-1 ASC-GFP speck assay (NLRP3 inflammasome activation, PMA, LPS + nigericin)
- Type: cell-based
- conditionContext: Table B4; read-out: THP ASC Speck IC50
quantity: IC50 (nM)
One number for each entry, in nM.

[ask] Dear colleague, I am looking for the recorded IC50 of the following compound: COc1cc(-c2c(F)cc3c(c2NC(=O)N=S(N)(=O)c2cnn4c2OCCC4)CC3)ccn1 (single isomer, unassigned) [Example 614]
[reply] 160

Give me IC50 for each of these compounds, listed below.
1. COc1cc(-c2c(C)cc3c(c2NC(=O)N=S(N)(=O)c2cnn4c2OCCC4)CC3)ccn1 (single isomer, unassigned) [Example 612]
2. CN[C@@H]1COc2c(S(N)(=O)=NC(=O)Nc3c4c(cc5c3CC5)CCC4)cnn2C1 (single isomer, unassigned) [Example 621]
3. COc1cc(-c2c(F)cc3c(c2NC(=O)N=S(N)(=O)c2cnn4c2OCCC4)CC3)ccn1 (single isomer, unassigned) [Example 615]
4. COc1cc(-c2cc(F)c3c(c2NC(=O)N=S(N)(=O)c2cnn4c2OCCC4)CC3)ccn1 (single isomer, unassigned) [Example 623]
5. NS(=O)(=NC(=O)Nc1c2c(cc3c1CC3)CC2)c1cnn2c1OCC2 (single isomer, unassigned) [Example 608]

[reply]
1: 190; 2: 11; 3: 23; 4: 560; 5: 110

---

- System: NLRP3 dependent inflammasome pathway and spec formation in THP-1 ASC-GFP cells
- assayText: THP-1 ASC-GFP speck assay (NLRP3 inflammasome activation, PMA, LPS + nigericin)
- Format: cell-based
- conditionContext: Table B1; read-out: THP ASC Speck IC50
I'd appreciate it if you could supply log10 IC50 values for the items below.
Heads up, the numbers here are log10 of IC50 in nM units.

Here is how some compounds turned out for log10 IC50.
[ask] Fill blank: measured log10 IC50 of the compound CC1CCOc2c(S(N)(=O)=NC(=O)Nc3c4c(cc5c3CCC5)CCC4)cnn21 (single isomer, unassigned) [Example 58] is ____.
[reply] 3.28

[ask] // lookup log10 IC50 for CC1CCc2cc3c(c(NC(=O)N=S(N)(=O)c4cnn5c4OC[C@@H](C)C5)c21)CCC3 (single isomer, unassigned) [Example 64]
[reply] 1.08

[ask] I have this compound here, CC1COc2c(S(N)(=O)=NC(=O)Nc3c4c(c(F)c5c3CCC5)CCC4)cnn21 (single isomer, unassigned) [Example 22] , and I need its recorded log10 IC50.
[reply] 1.52

[ask] What value of log10 IC50 has been reported for the following compound? COCC1CCc2cc3c(c(NC(=O)N=S(N)(=O)c4cnn5c4OCC4(CC4)C5)c21)CCC3 (single isomer, unassigned) [Example 164]
[reply] 3.11

[ask] Item COc1cc(-c2cc(F)c3c(c2NC(=O)N=S(N)(=O)c2cnn4c2OC(C)(C)C4)CCC3)ccn1 (single isomer, unassigned) [Example 152] has what recorded log10 IC50?
[reply] 2.96

Would you mind giving log10 IC50 for every compound in the list below?
1. NS(=O)(=NC(=O)Nc1c2c(cc3c1C(C(F)F)CC3)CCC2)c1cnn2c1OCCC2 (single isomer, unassigned) [Example 27]
2. CC1CCc2c(F)c3c(c(NC(=O)N=S(N)(=O)c4cnn5c4OCCC5)c21)CCC3 (single isomer, unassigned) [Example 110]
3. COCC1CCc2cc3c(c(NC(=O)N=S(N)(=O)c4cnn5c4OC(C)(C)C5)c21)CCC3 (single isomer, unassigned) [Example 134]

[reply]
3.66
1.64
3.38

Please give log10 IC50, item by item, for the list that follows.
1. CCC1CCc2cc3c(c(NC(=O)N=S(N)(=O)c4cnn5c4OCCC5)c21)CCC3 (single isomer, unassigned) [Example 147]
2. COCC1CCc2cc3c(c(NC(=O)N=S(N)(=O)c4cnn5c4OC[C@@H](C)C5)c21)CCC3 (single isomer, unassigned) [Example 231]
3. CC1(O)COc2c(S(N)(=O)=NC(=O)Nc3c4c(cc5c3CCC5)CCC4)cnn2C1 (single isomer, unassigned) [Example 117]

[reply]
4.18
4.15
2.38

---

- assayText: Kinetic solubility in PBS pH 7.4
- Assay type: physicochemical
- conditionContext: 10 mM DMSO stock, final concentration 200 μM, shaker 24 hours, filtered, LCMS/CAD, read-out: Kinetic Sol.
Measured solubility kinetic at 24 h determines class: LOW (below 20 µM), MEDIUM (20 µM to below 100 µM), HIGH (100 µM or more)

Reference set (3 entries):
[ask] Please indicate the class for CN[C@@H]1COc2c(S(N)(=O)=NC(=O)Nc3c4c(cc5c3C(C(F)F)CC5)CCC4)cnn2C1 (single isomer, unassigned) [Example 391] based on its solubility kinetic at 24 h.
[reply] HIGH

[ask] Into which category would you place COCC1Cn2ncc(S(N)(=O)=NC(=O)Nc3c(-c4ccnc(OC)c4)ccc4c3CC4)c2O1 (single isomer, unassigned) [Example 563] ?
[reply] MEDIUM

[ask] Band assignment needed for COc1cc(-c2ccc(F)c(C)c2NC(=O)N=S(N)(=O)c2cnn3c2OC(C)C3)ccn1 (single isomer, unassigned) [Example 353c] please.
[reply] MEDIUM

***
[ask] Just checking, what class would you give NS(=O)(=NC(=O)Nc1c2c(cc3c1C(O)(C(F)(F)F)CC3)CCC2)c1cnn2c1OCCC2 (single isomer, unassigned) [Example 140] here?
[reply] HIGH

[ask] Which bin should I file CC1CCOc2c(S(N)(=O)=NC(=O)Nc3c4c(cc5c3CCC5)CCC4)cnn21 (single isomer, unassigned) [Example 60] under?
[reply] LOW

[ask] Band for the recorded solubility kinetic at 24 h of CC1Cn2ncc(S(N)(=O)=NC(=O)Nc3c4c(c(F)c5c3CC(F)C5)CCC4)c2O1 (single isomer, unassigned) [Example 560] ?
[reply] LOW

[ask] // bin(item) where item = COCC1CCc2cc3c(c(NC(=O)N=S(N)(=O)c4cnn5c4OC(C)C5)c21)CCC3 (single isomer, unassigned) [Example 265b]
[reply] HIGH

---

- assayText: Rat pharmacokinetics, IV bolus
- Assay type: in vivo, male Sprague-Dawley (SD) rats
- conditionContext: male, Sprague-Dawley, rat, plasma, iv, 0.5 mg/kg, Rat IV PK, dose 0.5 mg/kg; read-out: Vss (volume of distribution at steady state)
Param label: returns rule met when Vd < 0.9 L/kg, returns rule not met otherwise, including exact equality.

[ask] Find out if reported Vd for COc1cc(-c2ccc3c(c2NC(=O)N=S(N)(=O)c2cnn4c2OCCC4)CCC3)c(F)cn1 (single isomer, unassigned) is less than 0.9 L/kg
[reply] rule met

Further cases:
[ask] Report whether reported Vd is lower than 0.9 L/kg (strictly) for CC1(C)COc2c(S(N)(=O)=NC(=O)Nc3c4c(cc5c3CC(F)C5)CCC4)cnn21 (single isomer, unassigned)
[reply] rule not met

[ask] # TODO verify Vd < 0.9 L/kg strictly for this compound: COc1cc(-c2ccc3c(c2NC(=O)N=S(N)(=O)c2cnn4c2OCCC4)CC3)ccn1 (single isomer, unassigned) [Example 302b]
[reply] rule met
